Molecular target: Prostaglandin G/H synthase 1 (Ovis aries)
Experiment: Inhibition of COX1 at 100 uM
inhibition below 20% gives not satisfied; inhibition at or above it gives satisfied.

Reference set, count: 4
CCCN1C(=O)O/C(=C2/C(=O)N(c3ccccc3)N=C2C)C=C1C
not satisfied
CC1=C/C(=C2\C(=O)N(c3ccccc3)N=C2C)OC(=O)N1c1ccc(Cl)cc1
satisfied
CCN1C(=O)O/C(=C2/C(=O)N(c3ccccc3)N=C2C)C=C1C
not satisfied
COc1ccc(N2C(=O)O/C(=C3/C(=O)N(c4ccccc4)N=C3C)C=C2C)cc1
satisfied

Exam item: decide whether the reported inhibition for CC1=C/C(=C2\C(=O)N(c3ccccc3)N=C2C)OC(=O)N1Cc1ccccc1 is at least 20%.
not satisfied

State whether the measured inhibition reaches 20%, counting equality as reaching it, for CC1=C/C(=C2\C(=O)N(c3ccccc3)N=C2C)OC(=O)N1c1ccc(C)cc1
satisfied

State whether the measured inhibition reaches 20%, counting equality as reaching it, for CC1=C/C(=C2\C(=O)N(c3ccccc3)N=C2C)OC(=O)N1c1ccccc1
satisfied

For this compound, is measured inhibition 20% or higher? CC1=C/C(=C2\C(=O)N(c3ccccc3)N=C2C)OC(=O)N1c1ccc(Br)cc1
not satisfied

---

Molecular target: Prostaglandin G/H synthase 1 (Ovis aries)
Assay: Inhibition of COX1
Item-by-item account of IC50
Report only the number, with the unit µM understood.

COc1ccc(N2C(=O)O/C(=C3/C(=O)N(c4ccccc4)N=C3C)C=C2C)cc1
269
CC1=C/C(=C2\C(=O)N(c3ccccc3)N=C2C)OC(=O)N1c1ccc(C)cc1
91.2

Could you share which IC50 value was measured for CC1=C/C(=C2\C(=O)N(c3ccccc3)N=C2C)OC(=O)N1c1ccccc1 ?
79.4

// data source = ChEMBL document CHEMBL1143947
